Test: Inhibition of trypsin by Dixon plot
pKi: −log10 of the molar value.
Assay metric: pKi

INSERT INTO assay_data (smi, numeric_value) VALUES
  ('O=C(O)c1ccc(C(=O)O)c2c1c(C(=O)O)c1cccnc1[n+]2C(=O)O', 4.01);

---

Experiment: Inhibition of trypsin at 32 degC
Assay metric: Ki (µM)

INSERT INTO assay_data (smi, numeric_value) VALUES
  ('O=C(O)c1ccc(C(=O)O)c2c1c(C(=O)O)c1cccnc1[n+]2C(=O)O', 102);

---

Assay: Inhibition of trypsin at 42 degC
Assay metric: Ki (µM)

INSERT INTO measurements (smi, numeric_value) VALUES
  ('O=C(O)c1ccc(C(=O)O)c2c1c(C(=O)O)c1cccnc1[n+]2C(=O)O', 94);
